Tested on: OVCAR-4 ovarian
Assay: NCI tumour cell line growth inhibition, 48 h
Item-by-item account of TGI

{"columns": ["molecule", "TGI"],
 "data": [
  ["COC(=O)[C@@H](C)C[C@H](Cc1ccccc1)NC(=O)c1csc([C@@H](C[C@H](C(C)C)N(C)C(=O)[C@@H](NC(=O)CN(C)C)C2CC2)OC(C)=O)n1", "> 16.5 µM"],
  ["CN1CCN(Cc2ccc(NC(=O)c3cncc(C#Cc4cncc5[nH]ncc45)c3)cc2C(F)(F)F)CC1", "5.34 µM"],
  ["C=C1C(=O)O[C@H]2[C@H]1CC/C(COC(=O)c1ccc(Br)cc1)=C\\CC[C@@]1(C)O[C@@H]21", "3.68 µM"],
  ["Cn1cc(C2=C(c3cccc(Cl)c3)C(=O)NC2=O)c2ccccc21", "> 25 µM"],
  ["COC(=O)C1=C(c2cc(OC)c(OC)c(OC)c2)OC(c2cc(OC)c(OC)c(OC)c2)C1 (stereo unspecified)", "70.6 µM"],
  ["O=S1(=O)OCCOS(=O)(=O)C1S(=O)(=O)c1cccc2ccccc12", "> 100 µM"],
  ["COc1ccc(-c2nc3ncccn3c2-c2ccc(S(C)(=O)=O)cc2)cc1", "> 100 µM"],
  ["Cc1cncc2cccc(S(=O)(=O)N3CCCNC[C@@H]3C)c12", "> 100 µM"],
  ["Cc1cccc(Cc2cnc(NC(=O)/C=C/c3ccco3)s2)c1", "> 100 µM"],
  ["Nc1nc(Cl)cc(NCC2CC(O)(CO)C2)n1 (stereo unspecified)", "> 100 µM"],
  ["CCOC(=O)c1sc2[n+](c1C)C(=O)/C(=C/c1ccccc1Cl)S2", "> 100 µM"],
  ["Cc1nc2cccc(F)c2c(=O)n1-c1nnc(C2CC2)s1", "> 10 µM"],
  ["CC(C)N(C(=O)C12C3C4C5C3C1(C(=O)N(C(C)C)C(C)C)C5C42)C(C)C (stereo unspecified)", "> 100 µM"],
  ["CC(C)S(=O)(=O)ON1C(=O)c2ccc([N+](=O)[O-])cc2C1=O", "> 100 µM"],
  ["Clc1ccc2c(NCCNc3nc(Cl)nc4ccccc34)ccnc2c1", "1.22 µM"],
  ["Cc1cc(S(=O)(=O)Nc2n[nH]c(N)n2)c(S)cc1Cl", "> 10 µM"]
]}

###

System: SK-MEL-28 melanoma
Assay: NCI tumour cell line growth inhibition, 48 h; in the data active means GI50 below about 0.43 µM; inactive means the rest
Classes used: true = active, false = inactive

{"columns": ["entry.smiles", "class.label"],
 "data": [
  ["O=C(Nc1ccc(I)cc1F)c1cc(F)ccc1O", "true"],
  ["CO[C@H]1/C=C/C=C/C=C/C[C@H](OC(=O)[C@@H](C)NC(=O)C2CCCCC2)[C@H](C)[C@@H](O)/C(C)=C\\CCC2=CC(=O)C=C(NC(=O)C1)C2=O", "true"],
  ["COc1ccc(OC)c(/C=C/C(=O)c2ccc(SC)cc2)c1", "false"],
  ["Fc1ccc(-c2ncn(C3CCNCC3)c2-c2ccnc(Oc3ccc(Oc4ccccc4)cc3)n2)cc1", "false"]
]}

###

Test system: MCF7 breast
Assay: NCI tumour cell line growth inhibition, 48 h
Reported values of TGI for individual entries
assay.endpoint: TGI

{"columns": ["molecule", "experimental.result"],
 "data": [
  ["COc1cc(C)c(S(=O)(=O)N(CCCN)OCCCN)c(C)c1C", "53.1 µM"],
  ["NC(=O)c1nnc2c(F)cccc2c1N", "> 100 µM"],
  ["C=C(C)[C@@H]1CC[C@@H]2C(=CC[C@]3(C)C([C@H](C)CC/C=C(/C)C(=O)O)CC[C@@]23C)[C@@]1(C)CCC(=O)O (stereo not given in full)", "> 100 µM"],
  ["Cn1cc(C2=C(c3cccc(Cl)c3)C(=O)NC2=O)c2ccccc21", "> 25 µM"],
  ["COc1nc2ncc([C@@H](O)[C@H](O)CO)nc2c(=O)[nH]1", "> 100 µM"],
  ["C/C(=N\\Nc1nc2ccccc2n1C)c1ccncn1", "> 100 µM"],
  ["Fc1ccc(-c2ncn(C3CCNCC3)c2-c2ccnc(Oc3ccc(Oc4ccccc4)cc3)n2)cc1", "6.9 µM"],
  ["O=C(O)c1ccccc1/C=C1/Nc2ccccc2C1=O", "> 100 µM"],
  ["CCOC(=O)N1c2c(c3ccccc3n2C(=O)OCC)C(=O)C(OC)N1C(=O)OCC (stereo not given)", "> 100 µM"],
  ["O=C(/C=C(/C=C/c1csc2ccccc12)OB(F)F)/C=C/c1csc2ccccc12", "> 50 µM"]
]}

###

Test system: OVCAR-3 ovarian
Assay: NCI tumour cell line growth inhibition, 48 h; in the data active = GI50 below about 0.43 µM; inactive = the rest
Outcome codes: active, inactive

{"columns": ["molecule", "test.target", "class.label"],
 "data": [
  ["NC(=S)c1cn(C2OC(CO)C(O)C2O)c2ncnc(N)c12 (stereo not given)", "OVCAR-3 ovarian", "active"],
  ["COc1ccc(OC)c(/C=C/C(=O)c2ccc(SC)cc2)c1", "OVCAR-3 ovarian", "active"],
  ["CC(=O)O[C@H]1Cc2c([nH]c3ccccc23)[C@@H](c2ccc(Cl)cc2)N1C(=O)CCNC(C)(C)C", "OVCAR-3 ovarian", "inactive"],
  ["c1ccc(-c2nn(-c3ccccc3)[n+](-c3ccccc3-c3ccccc3)n2)cc1", "OVCAR-3 ovarian", "active"],
  ["O=C(Nc1ccc(Oc2cccc(Cl)c2)c(Cl)c1)c1cccnc1", "OVCAR-3 ovarian", "inactive"],
  ["COc1ccc(C2C3=C(COC3=O)N(CCO)c3cc4c(cc32)CCC4)cc1OC (stereo not given)", "OVCAR-3 ovarian", "active"],
  ["Fc1ccc(-c2ncn(C3CCNCC3)c2-c2ccnc(Oc3ccc(Oc4ccccc4)cc3)n2)cc1", "OVCAR-3 ovarian", "inactive"],
  ["O=C1c2ccccc2-c2c1c1ccccc1c(=O)n2CCCNCCO", "OVCAR-3 ovarian", "inactive"],
  ["c1cc[c]([Sn]([O]c2cccc3cccnc23)([c]2ccccc2)[c]2ccccc2)cc1", "OVCAR-3 ovarian", "active"],
  ["CCOC(=O)Nc1ccc2nc(Sc3ccc(Cl)cc3)sc2c1", "OVCAR-3 ovarian", "inactive"]
]}

###

Test system: NCI-H23 lung
Experiment: NCI tumour cell line growth inhibition, 48 h
*1 amine or outer side, *2 acyl side, *3 side chain or, on linkers, in order; H or OH if unused. Where a SMILES comes first, the peptide text is derived from it. [ ]: non-standard residue; d: D form. The star is where a group is joined. X12 = NCCCCC(N[*:1])C(=O)CN1CCCC1C(=O)[*:2]; Pentadecanoyl = CCCCCCCCCCCCCCC(=O)*
assay.endpoint: TGI

{"columns": ["compound", "assay.endpoint", "experimental.result"],
 "data": [
  ["NS(=O)(=O)c1ccc(N=Nc2cc3ccccc3c(C(=O)O)c2O)cc1", "TGI", "> 100 µM"],
  ["O=c1[nH]c(=O)c2c([nH]1)[nH]c1ccccc12", "TGI", "> 100 µM"],
  ["COc1ccc(C(=O)C(CN(C)C)c2ccccc2)cc1 (configuration not stated)", "TGI", "3.32 µM"],
  ["Cc1cccc2c1C(=O)OC2(c1cccc2ccccc12)c1cccc2ccccc12", "TGI", "> 100 µM"],
  ["CCCCCCCCCCCCCCC(=O)NC(CCCCN)C(=O)CN1CCCC1C(=O)NCC(=O)NC(Cc1ccccc1)C(=O)N1CCCC1C(=O)NC(CO)C(=O)NC(Cc1ccc(O)cc1)C(=O)NC(CCCCN)C(=O)NC(CC(C)C)C(=O)NC(CCCN=C(N)N)C(=O)N1CCCC1C(=O)NCC(N)=O (configuration not stated) (Pentadecanoyl-[X12]GFPSYKLRPG-NH2; configuration not given here)", "TGI", "49.6 µM"],
  ["COc1ccc2c(c1)/C(=N/OC(C)=O)c1c-2c(Nc2ccc(/C(C)=N/OC(C)=O)cc2)nc2ccccc12", "TGI", "> 100 µM"],
  ["COC(=O)C1=C(C)NC(C)=C(C(=O)OC)C1c1ccccc1[N+](=O)[O-]", "TGI", "> 100 µM"],
  ["Nc1nn2cc(-c3ccccc3)[n+](CC(=O)c3ccccc3)c2s1", "TGI", "51.6 µM"],
  ["Cc1nc(C)c(C(=O)NNC(=O)c2ccccc2)cc1C(=O)NNC(=O)c1ccccc1", "TGI", "> 100 µM"],
  ["C/C(=N/OCCC(=O)O)C1CC1", "TGI", "> 100 µM"],
  ["COc1ccc(Nc2ccnc3cc(Cl)ccc23)cc1CN(CCCl)CCCl", "TGI", "3.26 µM"],
  ["COC1OC2COC(c3ccccc3)OC2C(OC(=S)c2ccccc2)C1O (configuration not stated)", "TGI", "> 100 µM"],
  ["CC(=O)c1nc(C#N)c(N)o1", "TGI", "> 100 µM"],
  ["CCN1CCN(c2nc(NNC(=O)c3cccc(OC)c3)nc(N3CCN(C(c4ccccc4)c4ccccc4)CC3)n2)CC1", "TGI", "5.03 µM"],
  ["O=C1/C(=C/c2ccc(Cl)cc2)COc2ccc(Br)cc21", "TGI", "> 100 µM"],
  ["c1ccc2c(Nc3ccc4c(c3)OCO4)c3ccoc3nc2c1", "TGI", "27.3 µM"],
  ["CC1=CCC(=O)[C@]2(C)C(CC(=O)O)[C@]3(C)C4=C(C)C(c5ccoc5)C[C@@H]4O[C@@H]3[C@H](O)[C@@H]12 (some centres not stated)", "TGI", "> 100 µM"],
  ["CC1=NNC(N)=N/C1=C\\C(Sc1ccc(Cl)cc1)c1ccc(Cl)cc1Cl (configuration not stated)", "TGI", "29.4 µM"],
  ["CN(C)CC1CCCCCCCCCCC1=O (configuration not stated)", "TGI", "> 100 µM"],
  ["Nc1nc(Cl)cc(NCC2CC(O)(CO)C2)n1 (configuration not stated)", "TGI", "> 100 µM"],
  ["CCOC(=O)C1=C(C)N(c2ccc(Cl)cc2)C2(O)C=CC(=O)C3C(=O)N(c4ccccc4)C(=O)C132 (configuration not stated)", "TGI", "4.75 µM"],
  ["O=C1CCC(=O)C(C(=O)CCC(=O)Nc2ccc(Cl)cc2)C1 (configuration not stated)", "TGI", "> 100 µM"]
]}
